# GI50 listing for each entry below
# Test system: NCI-H522
# EXPERIMENTAL PROTOCOL: NCI tumour cell line growth inhibition, 48 h
Activity calls are given as the source filed them. Rule as the data show it: active = GI50 up to about 1.1 µM and inactive = higher. Square brackets hold non-standard residues; d marks the D form. Peptide text beside a SMILES is read from it. * marks the point of attachment. X26 = COC1=CC(=O)N(C(=O)[C@@H](O*)C(C)C)[C@H]1Cc1ccccc1; Bn2Val = CC(C)[C@@H](C(=O)*)N(Cc1ccccc1)Cc1ccccc1; NMeV = CN[C@H](C(=O)O)C(C)C; dNMeA = CN[C@H](C)C(=O)O

1) OCCNCN(CNCCO)c1nc(N(CNCCO)CNCCO)nc(N(CNCCO)CNCCO)n1 ... 0.0653 µM (active)
2) N=C(N)C1=C(O)NC(=O)N(C2CCCCC2)C1 ... > 100 µM (inactive)
3) COc1cccc(N2C(=O)CSC2c2cc(OC)c(OC)c(OC)c2)c1 (centres undefined) ... 26.4 µM (inactive)
4) N#CC(c1cc2c(cc1Br)OCO2)N1CCOCC1 (centres undefined) ... > 100 µM (inactive)
5) COc1cc2c(c(OC)c1OC)-c1ccc(=O)c(O)cc1[C@@H](NC(C)=O)CC2 ... 12.2 µM (inactive)
6) CCCCCCCCCCOC(=O)NCCC ... 18.7 µM (inactive)
7) COc1ccc(-c2oc3cc(O)c(OC)c(O)c3c(=O)c2O)cc1 ... 10.2 µM (inactive)
8) COC1OC(C)C2OC(C)(C)OC2C1OC(C)=O (centres undefined) ... > 100 µM (inactive)
9) CCOC(=O)C(=Cc1[nH]c2ccccc2c1-c1c[nH]c2ccccc12)C(=O)OCC ... 54.7 µM (inactive)
10) COc1ccc(\N=C/C=C/C(=C/COC(C)=O)OC(C)=O)cc1 ... 6.62 µM (inactive)

IN: I am curious: what GI50 value has been reported for O=C1C=CC2(C=C1)CCNC1=C2C(=O)c2ccccc2C1=O ?
OUT: > 100 µM (inactive)

IN: If you can, please state the reported GI50 value of COc1ccc(OC)c(/C=C/c2cnnc3ccccc23)c1 .
OUT: 3.66 µM (inactive)

IN: Consider the compound COC1=CC(=O)N(C(=O)[C@@H](OC(=O)[C@@H](C)N(C)C(=O)[C@@H]2CCCN2C(=O)[C@H](C(C)C)N(C)C(=O)[C@@H](NC(=O)[C@H](C(C)C)N(Cc2ccccc2)Cc2ccccc2)C(C)C)C(C)C)[C@H]1Cc1ccccc1 (Bn2Val-V[NMeV]P[dNMeA]-X26) and give its measured GI50.
OUT: > 100 µM (inactive)
